Items are presented alongside their recorded IC50.
# Experimental target: HO-1 (Rattus norvegicus)
# Construct: This microsomal preparation represents the most native (i.e., closest to in vivo) form of HO-1; from tissue; host or cells: rat spleen microsomes (male Sprague-Dawley rats)
# Sequence (P06762 whole entry): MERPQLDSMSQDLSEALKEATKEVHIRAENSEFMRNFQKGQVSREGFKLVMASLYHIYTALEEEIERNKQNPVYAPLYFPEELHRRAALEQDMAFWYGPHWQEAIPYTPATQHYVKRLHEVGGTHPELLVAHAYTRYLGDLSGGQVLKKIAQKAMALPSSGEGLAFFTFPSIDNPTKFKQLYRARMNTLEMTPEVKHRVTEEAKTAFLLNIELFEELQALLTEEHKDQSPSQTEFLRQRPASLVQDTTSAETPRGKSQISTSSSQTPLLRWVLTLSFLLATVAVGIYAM
# Experiment notes: HO-1 enzymatic activity in microsomal fraction of rat spleen (bilirubin formation)
# Type: biochemical
# Condition details: experimental HO-1 IC50 repeated in Table 3; read-out: IC50
Measured property: IC50 (µM)

Molecule	Result
Cc1ccc(C(=O)Nc2cc(OCCCCn3ccnc3)cc(C(F)(F)F)c2)cc1Nc1nccc(-c2cccnc2)n1 [Compound 1h]	65.4
Cc1ccc(C(=O)Nc2ccc(Br)cc2OCCCCn2ccnc2)cc1Nc1nccc(-c2cccnc2)n1 [Compound 1i]	83.4
Cc1ccc(OCCCCn2ccnc2)c(NC(=O)c2ccc(C)c(Nc3nccc(-c4cccnc4)n3)c2)c1 [Compound 1j]	3060
Cc1ccc(C(=O)Nc2cc(OCCCCn3ccnc3)ccc2Br)cc1Nc1nccc(-c2cccnc2)n1 [Compound 1d]	116
Cc1ccc(C(=O)Nc2ccc(OCCCCn3ccnc3)c(Br)c2)cc1Nc1nccc(-c2cccnc2)n1 [Compound 1e]	55.1
Cc1ccc(C(=O)Nc2cc(Br)cc(OCCCCn3ccnc3)c2)cc1Nc1nccc(-c2cccnc2)n1 [Compound 1g]	51
